System: HepG2
Assay: GSK_TCMDC: Percent inhibition of human HepG2 cell line. Test compounds present at 10uM.
Assay type: functional

compound: COc1ccccc1-c1ccc(CNC(=O)C(CN2CCN(C)CC2)c2ccccc2)cc1 (centres undefined)
unit-label: %
Inhibition: 3

compound: COc1cccc(Nc2nc(C)cc(Nc3cccc(C#N)c3)n2)c1
unit-label: %
Inhibition: 0

compound: CN(Cc1cc(C(F)(F)F)cc(C(F)(F)F)c1)C(=O)C(Cc1ccc(F)cc1)C1CCCNC1 (centres undefined)
unit-label: %
Inhibition: 10

compound: O=C(Nc1ccc(C(F)(F)F)cc1)c1ccc(S(=O)(=O)NC2CCN(CC3CCCCC3)CC2)cc1.O=C(O)C(F)(F)F
unit-label: %
Inhibition: 30

compound: O=C(Nc1ccc(Cl)c(Cl)c1)Nc1ccccc1N1CCNCC1.O=C(O)C(F)(F)F
unit-label: %
Inhibition: 17

compound: O=C(NC1CCN(Cc2ccc(O)cc2)CC1)c1ccc(Cl)c(Cl)c1.O=C(O)C(F)(F)F
unit-label: %
Inhibition: 1

compound: CC1(C)C(=O)N=C2C1=C(O)C(=O)c1ccccc12
unit-label: %
Inhibition: 0

compound: Cc1ccccc1C1CCN(c2ccc(NC(=O)c3ccc(Cl)nc3)cc2)CC1.O=C(O)C(F)(F)F
unit-label: %
Inhibition: 43

compound: COc1ccc2nccc([C@@H](O)CN3CCC(NC(=O)C(=O)c4c[nH]c5c(C)cccc45)CC3)c2c1
unit-label: %
Inhibition: 17

compound: COc1cccc(-c2cnc(N)c(-c3nc4ccc(C(F)(F)F)cc4[nH]3)c2)c1.Cl
unit-label: %
Inhibition: 5

compound: CCn1c(-c2nonc2N)nc2c(-c3cccc(Cl)c3)ncc(OCCCNCc3cnc(C)nc3N)c21.O=C(O)C(F)(F)F
unit-label: %
Inhibition: 21

compound: O=C(COc1ccc(C(=O)c2ccccc2)cc1)Nc1nccs1
unit-label: %
Inhibition: 0

compound: Cn1cncc1C(=O)Nc1cccc(-c2ccc(-c3nc4cc(F)ccc4[nH]3)cc2)c1
unit-label: %
Inhibition: 0

compound: O=C(Nc1nc(-c2ccccn2)cs1)c1ccc(S(=O)(=O)N2CCc3ccccc32)cc1
unit-label: %
Inhibition: 47

compound: O=C(/C=C/c1ccc(-c2nc3ccc(Cl)cc3[nH]2)cc1)NCc1cccc(F)c1
unit-label: %
Inhibition: 1

compound: Cl.O=C(/C=C/c1ccc(F)cc1)NC1CCC(CCN2CCc3ccc(-n4cccn4)cc3CC2)CC1 (centres undefined)
unit-label: %
Inhibition: 23

compound: Cl.O=C(NCCCCN1CCC(c2ccc3c(c2O)CCCC3)CC1)c1ccc(NC(=O)c2ccc(Cl)cc2)cc1
unit-label: %
Inhibition: 99

compound: CC(C)COc1ccc(Cl)cc1Cc1nc(-c2nc3cccc(CN4CCN(C)CC4)c3[nH]2)cs1
unit-label: %
Inhibition: 15

compound: CN1CCCN(c2ccnc3cc4c(cc23)N(C(=O)c2ccc(C(F)(F)F)cc2)CC4)CC1.Cl
unit-label: %
Inhibition: 10
